- Test system: HS 578T breast
- test-details: NCI tumour cell line growth inhibition, 48 h
test-readout: TGI

compound | test-readout | recorded-value
O=C(/C=C/c1ccccc1)N1CCCCC1 | TGI | > 100 µM
Cc1cc(Oc2ccc3nc(COc4ccc(CC5SC(=O)NC5=O)cc4)n(C)c3c2)cc(C)c1N (stereo not drawn) | TGI | > 100 µM
O=C(NCc1ccco1)c1ccc(NC2=C(Cl)C(=O)N(Cc3ccccc3)C2=O)cc1 | TGI | > 100 µM

###

- Tested on: MCF7 breast
- test-details: NCI tumour cell line growth inhibition, 48 h
TGI by entry:
test-readout: TGI

compound | recorded-value
O=c1[nH]c(=O)n(C2CC(O)C(CO)O2)cc1OCC1CCCCC1 (stereo not drawn) | > 100 µM
COc1cc(-c2nn(-c3cccc(NC(=O)c4ccc(N5CCOCC5)c(C(F)(F)F)c4)c3)cc2-c2ccncc2)ccc1Cl | > 100 µM
Cc1ccc(NC2=N/C(=C/c3ccccc3)C(Cl)=N2)cc1 | > 100 µM

###

- Tested on: RXF 393 renal
- test-details: NCI tumour cell line growth inhibition, 48 h

compound | relation-symbol | TGI [µM]
CC(=O)OCC(OC(C)=O)C(OC(C)=O)C(OC(C)=O)C(C=NN(C(C)=O)S(=O)(=O)c1ccc(/C=C2\NC(=O)NC2=O)cc1)OC(C)=O (stereo not drawn) | > | 100
COc1ccc2[nH]cc(CCNC(=O)[C@](O)(Cc3cn(C)c4ccccc34)[C@@]3(O)OCC(O)C3O)c2c1 (stereo partly drawn) | > | 100
CN(C)CCCNC(=O)c1cncnc1Nc1ccc(OCc2cccc(F)c2)c(Cl)c1 | = | 2.87
Cc1nc2ccccc2c(=O)n1NC(=S)Nc1ccc(Cl)cc1[N+](=O)[O-] | > | 100
Nc1nc(Nc2ccccc2)sc1C(=O)c1cccs1 | = | 20.2
c1ccc(C[N+]23CN4CN(CN(C4)C2)C3)cc1 | = | 36.8
O=C(NCC(O)CNC(=O)C(F)(F)F)C(F)(F)F | > | 100
CCCC(=O)O.CCCC(=O)O.CCCC(=O)O.CCCC(=O)O.[Rh].[Rh] | = | 0.052
COc1c(C)cc2c(c1O)C1NC(C2)[C@H](O)N2C3COC(=O)[C@@]4(CS[C@@H](c5c(OC(C)=O)c(C)c6c(c53)OCO6)C12)NCCC1=C4NC2C=CC=CC12 (stereo partly drawn) | < | 0.01
OC1C2CCC1C1C3C=CC(C3)C21 (stereo not drawn) | > | 100
CN1CC(CNC(=O)OCc2ccccc2)CC2c3cccc4c3c(cn4C)CC21 (stereo not drawn) | = | 3.2
CC(=O)OCCOc1cc2c([nH]c3ccccc32)c(C)c2cccc1-2 | = | 4.4
COc1ccc(CNc2nc3cc(N)cc(N)c3nc2-c2ccccc2)cc1 | = | 18.4

###

- Test system: MDA-MB-231 breast
- test-details: NCI tumour cell line growth inhibition, 48 h
TGI by entry:
test-readout: TGI

compound | test-readout | recorded-value
O=C1CCCC2C3CC(CN12)C1CCCCN1C3 (stereo not given) | TGI | > 100 µM
N#Cc1nc(C(CO)N(Cc2ccccc2)C(=O)O)oc1N (stereo not given) | TGI | > 100 µM
O=c1[nH]c(=O)n(C2CC(O)C(CO)O2)cc1OCC1CCCCC1 (stereo not given) | TGI | > 100 µM
COc1cc(/C=C/C(=O)c2ccc(NC(=O)CSc3nnc(-c4cc(OC)c(OC)c(OC)c4)n3-c3ccccc3)cc2)cc(OC)c1OC | TGI | > 100 µM
COC(=O)[C@H](Cc1ccc(O)cc1)NC(=O)[C@@H](OC)[C@@H]1Cc2cc3cc(OC4CC(OC5CC(O)C(O)C(C)O5)C(O)C(C)O4)c(C)c(O)c3c(O)c2C(=O)[C@H]1OC1CC(OC2CC(OC3CC(C)(O)C(O)C(C)O3)C(O)C(C)O2)C(O)C(C)O1 (stereo not given in full) | TGI | > 25 µM

###

TGI by entry:
- Tested on: MDA-N
- test-details: NCI tumour cell line growth inhibition, 48 h

compound | TGI
CNc1nnc(CNc2ccc(-c3nnc(NC)n3N)cc2)n1N | > 100 µM
COC(=O)/C=C(\S/C(=N\n1cc(C(=O)OC)c(C(=O)OC)c1-c1ccc(C)cc1)c1ccc(C)cc1)C(=O)OC | 12.7 µM
COc1cc(S(=O)(=O)Nc2nc(-c3ccc(N4C(=O)/C(=C/c5ccccc5[N+](=O)[O-])N=C4c4ccccc4)cc3)cs2)ccc1Cl | > 100 µM
O=c1[nH]cnc2c1ncn2[C@@H]1C[C@H]1CO | > 100 µM
Clc1cc(Br)c2c3c(c(Br)cc(Cl)c13)C(Br)=C2Br | > 100 µM
CC(C)SC(NC(=O)C1C(C)(C)CCC1(C)C)C(=O)O (configuration not stated) | > 100 µM
Cc1ccc(C(=O)OCC(C)C)cc1N=NN(C)C | > 100 µM
CC[C@]12C=CCN3CC[C@@]4(c5cc(Br)c(OC)cc5N(C)[C@H]4[C@@](O)(C(=O)N[C@@H](Cc4ccc(O)cc4)C(=O)OC)[C@@H]1O)[C@@H]32 | 49.1 µM
Nc1nc(Nc2ccccc2)sc1C(=O)c1cccs1 | 46.4 µM
N#CS.N=C=S.N=C=S.[Cu+2].[NH2-].[NH2-].[NH2-].[NH2-].c1ccc2ncccc2c1 | > 100 µM
Cc1nc2ccccc2c(=O)n1NC(=S)Nc1ccc(Cl)cc1[N+](=O)[O-] | > 100 µM
CN1CC[C@]2(c3cccc(O)c3)CC(=O)/C(=C/c3ccc(Cl)c(Cl)c3)[C@@H]1C2 | 1.83 µM
Cc1ccc(NC2=N/C(=C/c3ccccc3)C(Cl)=N2)cc1 | > 100 µM
C=CCNS(=O)(=O)c1ncnc2nc[nH]c12 | > 100 µM
COc1c(OC/C=C(\C)CCC=C(C)C)ccc2ccc(=O)oc12 | > 100 µM
NC1=NCCN1CC(=O)O | > 10000 µM
COc1ccc(OC)c(-c2cc(=O)c3c(OC)c(OC)c(OC)c(OC)c3o2)c1 | > 100 µM

###

- System: NCI-H23 lung
- test-details: NCI tumour cell line growth inhibition, 48 h
TGI by entry:
test-readout: TGI

compound | measurement-target | recorded-value
COc1ccc2c(ccc3c(COC(=O)NC(C)C)c(COC(=O)NC(C)C)n(C)c32)c1 | NCI-H23 lung | 16 µM
CSCCOC(=O)C(=[N+]=[N-])c1ccc([N+](=O)[O-])cc1 | NCI-H23 lung | > 100 µM
O=[N+]([O-])c1cc(Cl)cc2cc(Br)cnc12 | NCI-H23 lung | > 31.6 µM
COc1cc(/C=C2\C(=O)N(C(=O)c3ccc(NC(C)=O)cc3)N=C2C)ccc1O | NCI-H23 lung | > 100 µM
NCCN1C(=O)C2C3c4ccccc4C(c4ccccc43)C2C1=O (stereo not drawn) | NCI-H23 lung | > 100 µM
CCOP(=O)(OCC)[C@H]1OC(C)(C)O[C@@H]1CO | NCI-H23 lung | > 100 µM
O=C1OCc2cc3cc4c(cc3c(-c3ccc5c(c3)OCO5)c21)OCO4 (tested in a mixture with another compound) | NCI-H23 lung | > 100 µM
O[C@@H]1C[C@H]2N3CC[C@@]2(c2cc4c(cc2C3)OCO4)[C@H]2O[C@@H]12 | NCI-H23 lung | > 100 µM
C=CCNS(=O)(=O)c1ncnc2nc[nH]c12 | NCI-H23 lung | > 100 µM
CCOC(=O)C(NCc1cccc(C(F)(F)F)c1)(NC(=O)CC)C(F)(F)F (stereo not drawn) | NCI-H23 lung | > 100 µM
N#C/C(=C/Sc1ccccc1)C(=O)O | NCI-H23 lung | > 100 µM
Brc1cc2c(cc1C1SCCS1)OCO2 | NCI-H23 lung | > 100 µM
C1=NCCNCCNCCN=Cc2ccccc2OCc2cccc(n2)COc2ccccc21 | NCI-H23 lung | > 100 µM
C/C(=N\NC(=S)N(C)CCN(C)C(=S)N/N=C(\C)c1ccccn1)c1ccccn1 | NCI-H23 lung | 28.5 µM
N#Cc1nc(C(CO)N(Cc2ccccc2)C(=O)O)oc1N (stereo not drawn) | NCI-H23 lung | > 100 µM
CC(=N\N=C\c1ccccn1)/C(C)=N/N=C(C)/C(C)=N/N=C/c1ccccn1 | NCI-H23 lung | > 100 µM
CCS(=O)(=O)Nc1cccc(Nc2c3cccc(C)c3nc3c(C)cccc23)c1OC | NCI-H23 lung | > 100 µM
COC(=O)/C=C/c1cn(C(C)=O)c2ccc(Br)cc12 | NCI-H23 lung | > 100 µM

###

- Tested on: LOX IMVI melanoma
- test-details: NCI tumour cell line growth inhibition, 48 h
test-readout: TGI

molecule | recorded-value
CC(=O)OCC(OC(C)=O)C(OC(C)=O)C(OC(C)=O)C(C=NN(C(C)=O)S(=O)(=O)c1ccc(/C=C2\NC(=O)NC2=O)cc1)OC(C)=O (stereo not drawn) | > 100 µM
CCOC(=O)C(NCc1cccc(C(F)(F)F)c1)(NC(=O)CC)C(F)(F)F (stereo not drawn) | > 100 µM
CCCCN(CCCC)CCCn1c(=O)c2c3ccccc3n(C)c2n2nnc(-c3ccccc3)c12 | > 100 µM
